assayed_target: human recombinant cathepsin K (Homo sapiens)
Construct: with a 100 nM final concentration of each active cathepsin for 30 min; made in house
Sequence (P43235 115-329): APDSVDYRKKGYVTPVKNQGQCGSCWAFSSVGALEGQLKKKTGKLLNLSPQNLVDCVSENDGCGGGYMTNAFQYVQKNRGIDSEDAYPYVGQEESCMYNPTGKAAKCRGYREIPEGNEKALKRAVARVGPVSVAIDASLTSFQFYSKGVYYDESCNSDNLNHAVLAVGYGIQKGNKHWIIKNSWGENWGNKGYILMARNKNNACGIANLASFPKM
assay_comment: Substrate hydrolysis kinetics (kcat, KM, kcat/KM) of ACC-labeled substrates
Assay type: biochemical
experimental_conditions: cathepsin K 320 nM; pH 5.5, 37 °C; Michaelis–Menten; average of at least triplicate, S.D. below 15%
Square brackets hold non-standard residues; d marks the D form. * marks the point of attachment. ACC = NC(=O)Cc1cc(=O)oc2cc(N*)ccc12; hTyr = N[C@@H](CCc1ccc(O)cc1)C(=O)O; hPhe = N[C@@H](CCc1ccccc1)C(=O)O; Cha = N[C@@H](CC1CCCCC1)C(=O)O; hLeu = CC(C)CC[C@H](N)C(=O)O; Nle = CCCC[C@H](N)C(=O)O; Nva = CCC[C@H](N)C(=O)O; OBn = c1ccc(CO*)cc1
recorded_metric: kcat/KM Cat K (M⁻¹ s⁻¹)
Enter your answer as a number in M⁻¹ s⁻¹; do not include the unit.

Would you please look over these solved cases?
[
  {
    "substance": "Ac-[hLeu][Nle]E(OBn)R-{ACC} (SMILES CCCC[C@H](NC(=O)[C@H](CCC(C)C)NC(C)=O)C(=O)N[C@@H](CCC(=O)OCc1ccccc1)C(=O)N[C@@H](CCCNC(=N)N)C(=O)Nc1ccc2c(CC(N)=O)cc(=O)oc2c1) [ACC-labeled tetrapeptide substrate]",
    "assayed_target": "human recombinant cathepsin K (Homo sapiens)",
    "endpoint_unit": "M⁻¹ s⁻¹",
    "kcat/KM Cat K": 17
  },
  {
    "substance": "Ac-[Nva][Cha]E(OBn)R-{ACC} (SMILES CCC[C@H](NC(C)=O)C(=O)N[C@@H](CC1CCCCC1)C(=O)N[C@@H](CCC(=O)OCc1ccccc1)C(=O)N[C@@H](CCCNC(=N)N)C(=O)Nc1ccc2c(CC(N)=O)cc(=O)oc2c1) [ACC-labeled tetrapeptide substrate]",
    "assayed_target": "human recombinant cathepsin K (Homo sapiens)",
    "endpoint_unit": "M⁻¹ s⁻¹",
    "kcat/KM Cat K": 30
  },
  {
    "substance": "Ac-[hPhe]LE(OBn)R-{ACC} (SMILES CC(=O)N[C@@H](CCc1ccccc1)C(=O)N[C@@H](CC(C)C)C(=O)N[C@@H](CCC(=O)OCc1ccccc1)C(=O)N[C@@H](CCCNC(=N)N)C(=O)Nc1ccc2c(CC(N)=O)cc(=O)oc2c1) [ACC-labeled tetrapeptide substrate]",
    "assayed_target": "human recombinant cathepsin K (Homo sapiens)",
    "endpoint_unit": "M⁻¹ s⁻¹",
    "kcat/KM Cat K": 12
  }
]

Now let's try a different one.
Asked: What measured kcat/KM Cat K goes with Ac-[hTyr]LE(OBn)R-{ACC} (SMILES CC(=O)N[C@@H](CCc1ccc(O)cc1)C(=O)N[C@@H](CC(C)C)C(=O)N[C@@H](CCC(=O)OCc1ccccc1)C(=O)N[C@@H](CCCNC(=N)N)C(=O)Nc1ccc2c(CC(N)=O)cc(=O)oc2c1) [ACC-labeled tetrapeptide substrate] ?
Given back: 14
